Just for reference, paper PMC4805166 is where these values come from.

Measured Hemolysis (%) 150 µM by item
- Test system: erythrocyte suspensions of horse blood;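 further: Read-out is hemoglobin release into the supernatant, with a buffer-only blank subtracted as the 0% baseline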
- COND: 150 µM peptide; horse erythrocytes 5% vol/vol, TRIS buffer pH 7.2, 1 h at 37°C, absorbance 540 nm; relative to melittin 100 μM; ± confidence interval (α = 0.05)
Where a SMILES comes first, the peptide text is derived from it. [ ]: non-standard residue; d: D form. The star is where a group is joined. Hexanoyl = CCCCCC(=O)*; Butyryl = CCCC(=O)*
RECORDED_ENDPOINT: Hemolysis (%) 150 µM

[[record]]
molecule = "CCCC(=O)NCCCC[C@H]1NC(=O)[C@H](CCCCN)NC(=O)[C@H](CC(C)C)NC(=O)[C@H](CCCCN)NC(=O)[C@H](CCCCN)NC(=O)[C@H](CCC(N)=O)NC(=O)[C@H](CC(C)C)NC(=O)[C@H](CCCCN)NC(=O)[C@H](CCCCN)NC(=O)[C@H](Cc2ccccc2)NC1=O [BPC702, c(KKLKk(CO-C3H7)FKKLQ)] (cyclo(FKKLQKKLK[dK](Butyryl)))"
data_value = 1

[[record]]
molecule = "CCCC(=O)NCCCC[C@@H]1NC(=O)[C@H](CCC(N)=O)NC(=O)[C@H](CC(C)C)NC(=O)[C@H](CCCCN)NC(=O)[C@H](CCCCN)NC(=O)[C@@H](Cc2ccccc2)NC(=O)[C@H](CCCCN)NC(=O)[C@H](CCCCN)NC(=O)[C@H](CC(C)C)NC(=O)[C@H](CCCCN)NC1=O [BPC716, c(K(CO-C3H7)KLKKfKKLQ)] (cyclo(K(Butyryl)KLKK[dF]KKLQ))"
data_value = 2

[[record]]
molecule = "CCCCCC(=O)NCCCC[C@@H]1NC(=O)[C@H](CC(C)C)NC(=O)[C@H](CCCCN)NC(=O)[C@H](CCCCN)NC(=O)[C@H](CCC(N)=O)NC(=O)[C@H](CC(C)C)NC(=O)[C@H](CCCCN)NC(=O)[C@H](CCCCN)NC(=O)[C@H](Cc2ccccc2)NC(=O)[C@H](CCCCN)NC1=O [BPC586, c(KKLK(CO-nC5H11)KFKKLQ)] (cyclo(FKKLQKKLK(Hexanoyl)K))"
data_value = 92


----------
- Test system: Erwinia amylovora PMV6076
- EXPERIMENT_SUMMARY: MIC, in vitro growth inhibition
- Assay type: cell-based
- COND: TSB, 25°C, 48 h, OD 600 nm; tested at 3.1, 6.2, 12.5, 25, 50 μM; three replicates, experiment repeated twice; MIC = lowest concentration with no growth
Where a SMILES comes first, the peptide text is derived from it. The star is where a group is joined. Oleoyl = CCCCCCCC/C=C\CCCCCCCC(=O)*
RECORDED_ENDPOINT: MIC Ea

[[record]]
compound = "CCCCCCCC/C=C\\CCCCCCCC(=O)NCCCC[C@@H]1NC(=O)[C@H](CCCCN)NC(=O)[C@H](CC(C)C)NC(=O)[C@H](CCCCN)NC(=O)[C@H](CCCCN)NC(=O)[C@H](CCC(N)=O)NC(=O)[C@H](CC(C)C)NC(=O)[C@H](CCCCN)NC(=O)[C@H](CCCCN)NC(=O)[C@H](Cc2ccccc2)NC1=O [BPC622, c(KKLKK(CO-C17H33)FKKLQ)] (cyclo(FKKLQKKLKK(Oleoyl)))"
data_value = ">50 µM"

